Test system: LOC_OS01G14860-cb001
Assay Text: thermal shift delta Tm vs DMSO control; higher = stronger stabilization (binding);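 note: purified Escherichia coli-expressed rice kinase domain construct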
Test Settings: 12.5 µM; protein concentration 2 µM
Here, each record is paired with measured thermal shift delta Tm data.

Molecule: CN(C)S(=O)(=O)c1ccc2c(c1)/C(=C/c1cc3c([nH]1)CCCC3)C(=O)N2
Measurement Units: °C
thermal shift delta Tm: 1.95

Molecule: CC1(C)OC(=O)C=C[C@]2(C)[C@H]3CC[C@@]4(C)[C@H](c5ccoc5)OC(=O)[C@H]5O[C@]54[C@]3(C)C(=O)C[C@@H]12 [Obacunone]
Measurement Units: °C
thermal shift delta Tm: 0.35

Molecule: C=CC(=O)N1CCC(Oc2cc3c(Nc4ccc(Cl)c(Cl)c4F)ncnc3cc2OC)CC1 [Poziotinib (HM781-36B)]
Measurement Units: °C
thermal shift delta Tm: 0.65

Molecule: Cc1[nH]c(/C=C2\C(=O)Nc3ccc(S(=O)(=O)N(C)c4cccc(Cl)c4)cc32)c(C)c1C(=O)N1CCN(C)CC1
Measurement Units: °C
thermal shift delta Tm: 0.57

Molecule: O=C1NC(=O)C(=Cc2ccc(-c3ccc(F)cc3)o2)S1 (stereo in doubt)
Measurement Units: °C
thermal shift delta Tm: 0.85

Molecule: Cc1cc(Nc2cc(N3CCN(C)CC3)nc(Sc3ccc(NC(=O)C4CC4)cc3)n2)n[nH]1 [Tozasertib (VX-680, MK-0457)]
Measurement Units: °C
thermal shift delta Tm: 1.86

Molecule: CO[C@@H](C(=O)N1Cc2[nH]nc(NC(=O)c3ccc(N4CCN(C)CC4)cc3)c2C1)c1ccccc1
Measurement Units: °C
thermal shift delta Tm: 0.54

Molecule: Cc1cc(Nc2cc(N3CCN(C)CC3)nc(/C=C/c3ccccc3)n2)n[nH]1
Measurement Units: °C
thermal shift delta Tm: 2.99

Molecule: O=C(Nc1nccs1)C(c1cc(F)ccc1O)N1Cc2ccccc2C1=O (stereo unspecified)
Measurement Units: °C
thermal shift delta Tm: 0.4

Molecule: C=CC(=O)N1CCN(CCCn2c(=O)c(-c3c(Cl)c(OC)cc(OC)c3Cl)cc3cnc(NC)nc32)CC1
Measurement Units: °C
thermal shift delta Tm: 0.42

Molecule: Clc1ccc(Nc2nnc(Cc3ccncc3)c3ccccc23)cc1 [Vatalanib (PTK787) 2HCl]
Measurement Units: °C
thermal shift delta Tm: 0.31

Molecule: CCCCCCCCCCCCCCCCn1cc[n+](Cc2ccccc2)c1C
Measurement Units: °C
thermal shift delta Tm: -18.6

Molecule: N#Cc1c(NC(=O)c2cccc3ccccc23)sc2c1CCCC2 [JNK Inhibitor IX]
Measurement Units: °C
thermal shift delta Tm: -0.15

Molecule: O=C(NCCCNc1nc(Nc2cccc(NC(=O)N3CCCC3)c2)ncc1I)c1cccs1
Measurement Units: °C
thermal shift delta Tm: 5.77

Molecule: COc1cc2nccc(Oc3ccc(NC(=O)Nc4cc(C)on4)c(Cl)c3)c2cc1OC [Tivozanib (AV-951)]
Measurement Units: °C
thermal shift delta Tm: 0.65

Molecule: C[C@H]1[C@H](C)CC[C@]2(C(=O)O)CC[C@]3(C)C(=CC[C@@H]4[C@@]5(C)C[C@@H](O)[C@H](O)[C@@](C)(CO)[C@@H]5CC[C@]43C)[C@H]12 [Asiatic Acid]
Measurement Units: °C
thermal shift delta Tm: 0.23

* * *

Tested on: LOC_OS05G16824-cb004
Assay Text: thermal shift delta Tm vs DMSO control; higher = stronger stabilization (binding)
Test Settings: 12.5 µM; protein concentration 2 µM
Structures can show the parent of a compound that is named as a salt.

Compound: NC(=O)c1ncn([C@@H]2O[C@H](CO)[C@@H](O)[C@H]2O)c1N [AICAR (Acadesine)]
thermal shift delta Tm: -1.12 °C

Compound: CN1C(=O)[C@@H](NC(=O)c2n[nH]c(Cc3ccccc3)n2)COc2ccccc21
thermal shift delta Tm: 2.34 °C

Compound: O=C(/C=C/c1ccc(O)c(O)c1)c1ccc(O)cc1O [Butein]
thermal shift delta Tm: 4.48 °C

Compound: C[C@H](CN(C)C)Oc1nc(Nc2cc3cccc(Cl)c3cn2)cnc1C#N
thermal shift delta Tm: 3.41 °C

Compound: CCNc1nc(Nc2cc(F)c(C(=O)N3CCOCC3)cc2OC)ncc1C(F)(F)F
thermal shift delta Tm: 1.21 °C

Compound: Cn1cc(-c2cnn3c(N)c(Br)c([C@@H]4CCCNC4)nc23)cn1
thermal shift delta Tm: 4.78 °C

Compound: CCn1c2ccccc2c2cc(Nc3ccnc(NCCCN4CCOCC4)n3)ccc21
thermal shift delta Tm: -1.41 °C

Compound: Cc1c(NC(=O)OC[C@@H]2COCCN2)cn2ncnc(Nc3ccc4c(cnn4Cc4cccc(F)c4)c3)c12
thermal shift delta Tm: 0.54 °C

Compound: COc1cc2c3cc1Oc1c(OC)c(OC)cc4c1[C@@H](Cc1ccc(O)c(c1)Oc1ccc(cc1)C[C@@H]3N(C)CC2)N(C)CC4 [Berbamine (dihydrochloride)]
thermal shift delta Tm: -7.42 °C

Numbers sourced from the supplement of paper PMC9694430.
